Target: rat KissR-1 (Rattus norvegicus, UniProt Q924U1)
Construct: expressed in transfected cells
Sequence (Q924U1 whole entry): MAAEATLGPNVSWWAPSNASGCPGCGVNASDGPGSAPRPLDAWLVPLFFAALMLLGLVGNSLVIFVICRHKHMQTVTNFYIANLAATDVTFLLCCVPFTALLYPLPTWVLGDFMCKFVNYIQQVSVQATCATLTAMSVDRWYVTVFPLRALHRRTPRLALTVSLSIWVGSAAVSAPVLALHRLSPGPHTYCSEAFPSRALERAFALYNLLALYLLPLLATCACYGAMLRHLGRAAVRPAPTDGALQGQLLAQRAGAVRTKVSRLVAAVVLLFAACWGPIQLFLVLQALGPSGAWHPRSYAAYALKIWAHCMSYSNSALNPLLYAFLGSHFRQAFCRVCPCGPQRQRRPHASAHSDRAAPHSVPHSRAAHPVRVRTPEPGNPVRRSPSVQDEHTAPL
Assay: [Ca^2+]i response (Fluo-4 AM, FlexStation) in rat KissR-1-transfected CHO-K1 cells
Type: cell-based
Conditions: rat KissR-1 CHO-K1 cells; peak Fluo-4 fluorescence, baseline normalized to 100%; 10^−12 to 10^−6 M; 37°C; 180 s recording; four-parameter logistic; mean ± SEM from two independent experiments
Ends that are not written are not given here.
quantity measured: Emax (%)

[
  {
    "substance": "ENFSSYNWNSFGLRY-NH2 [Eel Kp1(15)]",
    "quantity measured": "Emax",
    "val": 277
  },
  {
    "substance": "FNRNPFGLRF-NH2 [Eel Kp2(10)]",
    "quantity measured": "Emax",
    "val": 260
  },
  {
    "substance": "SKFNRNPFGLRF-NH2 [Eel Kp2(12)]",
    "quantity measured": "Emax",
    "val": 256
  },
  {
    "substance": "YNWNSFGLRY-NH2 [Eel Kp1(10)]",
    "quantity measured": "Emax",
    "val": 236
  }
]

###

Molecular target: rat KissR-1 (Rattus norvegicus)
Construct: expressed in transfected cells
Assay: [Ca^2+]i response (Fluo-4 AM, FlexStation) in rat KissR-1-transfected CHO-K1 cells
Assay type: cell-based
Conditions: rat KissR-1 CHO-K1 cells; peak Fluo-4 fluorescence; 10^−12 to 10^−6 M; 37°C; four-parameter logistic; mean ± SEM from two independent experiments
pEC50: −log10 of the molar value. Ends that are not written are not given here.
quantity measured: pEC50

[
  {
    "substance": "ENFSSYNWNSFGLRY-NH2 [Eel Kp1(15)]",
    "quantity measured": "pEC50",
    "val": 7.93
  }
]

(a) FNRNPFGLRF-NH2 [Eel Kp2(10)]
(b) YNWNSFGLRY-NH2 [Eel Kp1(10)]
(c) SKFNRNPFGLRF-NH2 [Eel Kp2(12)]
Please produce an ascending ranking of these substances based on pEC50. Give me the labels in the order the question wants.
c, a, b
